system: Leishmania donovani; test: Antileishmanial activity against Leishmania donovani 9515 (MHOM/IN/95/9151) promastigote incubated for 48 hrs by resazurin dye based plate reader assay; type: functional, organism-based
// IC50 lookup, one value per entry

Solved entries:
{"SUBSTANCE_SMILES": "C#CCn1ccc2cc([N+](=O)[O-])ccc21", "READOUT_LABEL": "IC50", "REPORTED_VALUE": "> 10 µM"}
{"SUBSTANCE_SMILES": "C#CCn1cc(/C=N\\N=C\\c2ccc([N+](=O)[O-])cc2)c2cc([N+](=O)[O-])ccc21", "READOUT_LABEL": "IC50", "REPORTED_VALUE": "> 10 µM"}

Now consider the entry below.
Look at this compound and give its reported IC50. C#CCn1cc(\C=N/N=C/C(C)=C\C)c2cc([N+](=O)[O-])ccc21
10.5 µM

---

// selectivity ratio lookup, one value per entry
assay: Selectivity index, ratio of IC50 for african green monkey Vero cells to IC50 for leishmanicidal activity against Leishmania major NIH-S (MHOM/SN/74/Seidman) amastigote; type: toxicity, cell-based; conditions: read-out: Ratio IC50
Number only, please.

{"SUBSTANCE_SMILES": "C#CCn1cc(/C=N\\N=C\\c2ccc([N+](=O)[O-])o2)c2cc([N+](=O)[O-])ccc21", "selectivity ratio": 6}

Look at this compound and give its reported selectivity ratio. C#CCn1cc(/C=N\N=C\c2ccc([N+](=O)[O-])s2)c2cc([N+](=O)[O-])ccc21
25

---

// selectivity ratio lookup, one value per entry
test: Selectivity index, ratio of CC50 for MDBK to IC50 for Trypanosoma brucei rhodesiense IL1501; type: toxicity, cell-based; conditions: cattle, MDBK cells; read-out: Ratio CC50/IC50

{"SUBSTANCE_SMILES": "C#CCn1cc(/C=N\\N=C\\C(C)=Cc2ccccc2)c2cc([N+](=O)[O-])ccc21", "selectivity ratio": 0.93}
{"SUBSTANCE_SMILES": "C#CCn1cc(/C=N\\N=C\\c2ccc([N+](=O)[O-])o2)c2cc([N+](=O)[O-])ccc21", "selectivity ratio": "> 364"}
{"SUBSTANCE_SMILES": "C#CCn1cc(/C=N\\N=C\\c2ccc([N+](=O)[O-])s2)c2cc([N+](=O)[O-])ccc21", "selectivity ratio": "> 753"}
{"SUBSTANCE_SMILES": "C#CCn1cc(/C=N\\N=C\\C2CCCCC2)c2cc([N+](=O)[O-])ccc21", "selectivity ratio": "> 15.3"}
{"SUBSTANCE_SMILES": "C#CCn1cc(/C=N\\N=C\\c2cccs2)c2cc([N+](=O)[O-])ccc21", "selectivity ratio": 18.3}

Look at this compound and give its reported selectivity ratio. C#CCn1cc(/C=N\N=C/CC)c2cc([N+](=O)[O-])ccc21
> 4.72

Look at this compound and give its reported selectivity ratio. C#CCn1cc(/C=N\N=C/CCC)c2cc([N+](=O)[O-])ccc21
> 6.96

Look at this compound and give its reported selectivity ratio. C#CCn1cc(/C=N/N=C\C=C(C)C)c2cc([N+](=O)[O-])ccc21
1.96

---

// IC50 lookup, one value per entry
test system: Trypanosoma brucei rhodesiense; test: Trypanocidal activity against Trypanosoma brucei rhodesiense IL1501 incubated for 72 hrs by CellTiter-Glo reagent based […] analysis; assay type: functional, organism-based; details: IL1501, 72 h

{"SUBSTANCE_SMILES": "C#CCn1cc(/C=N\\N=C/CCC)c2cc([N+](=O)[O-])ccc21", "REPORTED_VALUE": "48.5 µM"}
{"SUBSTANCE_SMILES": "C#CCn1cc(/C=N\\N=C\\c2cnc[nH]2)c2cc([N+](=O)[O-])ccc21", "REPORTED_VALUE": "> 78 µM"}

Now consider the entry below.
Look at this compound and give its reported IC50. C#CCn1cc(/C=N\N=C\c2ccco2)c2cc([N+](=O)[O-])ccc21
> 78 µM

---

// selectivity ratio lookup, one value per entry
assay: Selectivity index, ratio of CC50 for MDBK to IC50 for Trypanosoma brucei gambiense IL1922; type: toxicity, cell-based; details: cattle, MDBK cells; read-out: Ratio CC50/IC50
Number only, please.

Solved entries:
{"SUBSTANCE_SMILES": "C#CCn1cc(/C=N\\N=C\\C(C)=Cc2ccccc2)c2cc([N+](=O)[O-])ccc21", "selectivity ratio": 0.34}
{"SUBSTANCE_SMILES": "C#CCn1cc(/C=N\\N=C\\c2cccs2)c2cc([N+](=O)[O-])ccc21", "selectivity ratio": 20.2}

Look at this compound and give its reported selectivity ratio. C#CCn1cc(/C=N/N=C\C=C(C)C)c2cc([N+](=O)[O-])ccc21
2.04

---

// CC50 at 72 h lookup, one value per entry
assay: Cytotoxicity against MDBK cells incubated for 72 hrs by CCK8 assay; type: toxicity, cell-based, Bos taurus; details: cattle, MDBK cells

{"SUBSTANCE_SMILES": "C#CCn1cc(/C=N\\N=C\\c2ccc([N+](=O)[O-])o2)c2cc([N+](=O)[O-])ccc21", "CC50 at 72 h": "> 274 µM"}

Look at this compound and give its reported CC50 at 72 h. C#CCn1cc(/C=N\N)c2cc([N+](=O)[O-])ccc21
341 µM

Look at this compound and give its reported CC50 at 72 h. C#CCn1cc(/C=N\N=C\C2CCCCC2)c2cc([N+](=O)[O-])ccc21
> 297 µM

---

assay: Cytotoxicity against green monkey Vero cells incubated for 48 hrs by resazurin dye based assay; assay type: toxicity, cell-based; conditions: African green monkey (Chlorocebus sabaeus)
// IC50 at 48 h lookup, one value per entry
Just the number please, in µM, no unit attached.

{"SUBSTANCE_SMILES": "C#CCn1cc(/C=N\\N=C\\c2ccc([N+](=O)[O-])o2)c2cc([N+](=O)[O-])ccc21", "REPORTED_VALUE": 8.07}
{"SUBSTANCE_SMILES": "C#CCn1cc(\\C=N/N=C/C=C/c2ccccc2)c2cc([N+](=O)[O-])ccc21", "REPORTED_VALUE": 24.5}
{"SUBSTANCE_SMILES": "C#CCn1cc(/C=N\\N=C\\c2ccc([N+](=O)[O-])cc2)c2cc([N+](=O)[O-])ccc21", "REPORTED_VALUE": 27.5}
{"SUBSTANCE_SMILES": "C#CCn1cc(/C=N/N=C\\C=C(C)C)c2cc([N+](=O)[O-])ccc21", "REPORTED_VALUE": 80.3}
{"SUBSTANCE_SMILES": "C#CCn1cc(/C=N\\N)c2cc([N+](=O)[O-])ccc21", "REPORTED_VALUE": 96.8}

Look at this compound and give its reported IC50 at 48 h. C#CCn1cc(/C=N\N=C\C(C)=Cc2ccccc2)c2cc([N+](=O)[O-])ccc21
9.59

Look at this compound and give its reported IC50 at 48 h. C#CCn1cc(/C=N\N=C\c2ccc([N+](=O)[O-])s2)c2cc([N+](=O)[O-])ccc21
51.1

Look at this compound and give its reported IC50 at 48 h. C#CCn1cc(/C=N\N=C\c2nccn2C)c2cc([N+](=O)[O-])ccc21
54.7

Look at this compound and give its reported IC50 at 48 h. C#CCn1cc(/C=N\N=C\c2cnc[nH]2)c2cc([N+](=O)[O-])ccc21
83.2

Look at this compound and give its reported IC50 at 48 h. C#CCn1cc(/C=N\N=C\c2cccs2)c2cc([N+](=O)[O-])ccc21
10.8

---

experiment: Cytotoxicity against MDBK cells incubated for 72 hrs by CCK8 assay; format: toxicity, cell-based, Bos taurus; settings: cattle, mdbk, 72 h
READOUT_LABEL: CC50 (µM)
Just the number please, in µM, no unit attached.

Look at this molecule and give its reported CC50. C#CCn1cc(/C=N\N=C\C(C)=Cc2ccccc2)c2cc([N+](=O)[O-])ccc21
226

---

tested on: Trypanosoma evansi; assay: Trypanocidal activity against Trypanosoma evansi Tansui incubated for 72 hrs by CellTiter-Glo reagent based […] analysis; assay type: functional, organism-based
READOUT_LABEL: IC50

Solved entries:
{"MOLECULE": "C#CCn1cc(/C=N\\N=C\\c2cccs2)c2cc([N+](=O)[O-])ccc21", "REPORTED_VALUE": "18.5 µM"}
{"MOLECULE": "C#CCn1cc(/C=N\\N=C\\c2cnc[nH]2)c2cc([N+](=O)[O-])ccc21", "REPORTED_VALUE": "> 78 µM"}
{"MOLECULE": "C#CCn1cc(/C=N\\N=C/CC)c2cc([N+](=O)[O-])ccc21", "REPORTED_VALUE": "55.4 µM"}
{"MOLECULE": "C#CCn1cc(/C=N\\N=C/C2CC2)c2cc([N+](=O)[O-])ccc21", "REPORTED_VALUE": "> 84.9 µM"}
{"MOLECULE": "C#CCn1cc(/C=N\\N=C\\C(C)=Cc2ccccc2)c2cc([N+](=O)[O-])ccc21", "REPORTED_VALUE": "22.7 µM"}
{"MOLECULE": "C#CCn1cc(/C=N\\N=C\\c2ccc([N+](=O)[O-])cc2)c2cc([N+](=O)[O-])ccc21", "REPORTED_VALUE": "> 66.7 µM"}
{"MOLECULE": "C#CCn1cc(/C=N\\N=C\\c2ccncc2)c2cc([N+](=O)[O-])ccc21", "REPORTED_VALUE": "> 75.5 µM"}
{"MOLECULE": "C#CCn1cc(/C=N\\N=C\\C2CCCCC2)c2cc([N+](=O)[O-])ccc21", "REPORTED_VALUE": "> 74.3 µM"}

Look at this molecule and give its reported IC50. NCCCC(N)(C(=O)O)C(F)F (stereo not given) [EFLORNITHINE]
57.2 µM

Look at this molecule and give its reported IC50. C#CCn1cc(/C=N\N)c2cc([N+](=O)[O-])ccc21
> 103 µM
